# measurement protocol: Cytotoxicity by xCELLigence RTCA system
# condition label: human
This section presents molecules with their documented IC50 at 24 h values.
experimental endpoint: IC50 at 24 h (µg/mL)

{"molecule": "COc1c2ccoc2cc2oc(=O)ccc12", "reading unit": "µg/mL", "censoring operator": "=", "recorded value": 126}
{"molecule": "CC#CC#C/C=C1\\C=CC2(CCCO2)O1 (stereo not drawn) [Compound 5, (E)-spiroether]", "reading unit": "µg/mL", "censoring operator": "<", "recorded value": 1}
{"molecule": "O=c1cc(-c2ccc(O)c(O)c2)oc2cc(O)cc(O)c12", "reading unit": "µg/mL", "censoring operator": "=", "recorded value": 30}

Numbers sourced from paper PMC6274922.
